# study_system: guinea pig brain membranes
# run_description: Binding test with guinea pig brain membranes
# measurement_context: tested on guinea pig brain membranes; read-out: IC50 = 100 μM
pIC50: −log10 of the molar value. Where a SMILES comes first, the peptide text is derived from it.
Please enter 1 (yes) where pIC50 is greater than or equal to 7, and 0 (no) where it is lower.

Please review the following examples before continuing.
- compound: "CC(C)C[C@H](NC(=O)[C@H](CCC(N)=O)NC(=O)[C@H](C)NC(=O)[C@@H](NC(=O)[C@H](CCC(=O)O)NC(=O)[C@H](CCC(=O)O)NC(=O)[C@H](CCCCN)NC(=O)[C@@H]1CCCN1C(=O)[C@@H]1CCCN1C(=O)[C@@H](N)CCC(=O)O)[C@@H](C)O)C(=O)N[C@H](C(=O)NCC(=O)N1CCC[C@H]1C(=O)N[C@@H](CCC(=O)O)C(=O)N[C@@H](C)C(N)=O)[C@@H](C)O [Example 65, H-EPPKEETAQLTGPEA-NH2] (H-EPPKEETAQLTGPEA-NH2)"
  study_system: "guinea pig brain membranes"
  assigned_category: "0 (no)"
- compound: "CC[C@H](C)[C@H](NC(=O)[C@H](CO)NC(=O)[C@@H](N)Cc1ccccc1)C(=O)N[C@@H](C)C(=O)N[C@H](C(=O)N[C@@H](CC(C)C)C(=O)N[C@@H](CCCNC(=N)N)C(=O)N[C@@H](CC(=O)O)C(=O)N[C@@H](Cc1ccccc1)C(=O)NCC(=O)N[C@H](C(N)=O)C(C)C)[C@@H](C)O [Example 15, H-FSIATLRDFGV-NH2] (H-FSIATLRDFGV-NH2)"
  study_system: "guinea pig brain membranes"
  assigned_category: "0 (no)"
- compound: "CC(C)C[C@H](NC(=O)[C@H](CCCCN)NC(=O)[C@H](CO)NC(=O)[C@@H](N)CCC(=O)O)C(=O)N[C@@H](CCC(=O)O)C(=O)N[C@@H](CCCNC(=N)N)C(=O)N[C@H](C(=O)N1CCC[C@H]1C(=O)N[C@@H](CCC(N)=O)C(=O)N[C@@H](CCCCN)C(=O)N[C@@H](CC(N)=O)C(=O)N[C@H](C(=O)N[C@@H](CCC(N)=O)C(N)=O)C(C)C)[C@@H](C)O [Example 41, H-ESKLERTPQKNVQ-NH2] (H-ESKLERTPQKNVQ-NH2)"
  study_system: "guinea pig brain membranes"
  assigned_category: "0 (no)"

Item CSCC[C@H](NC(=O)[C@H](CO)NC(=O)[C@H](CCSC)NC(=O)[C@H](CO)NC(=O)[C@H](CC(=O)O)NC(=O)[C@H](CCCCN)NC(=O)[C@H](CC(N)=O)NC(=O)[C@H](CCC(N)=O)NC(=O)[C@H](CCCNC(=N)N)NC(=O)[C@@H](NC(=O)[C@H](CCCCN)NC(=O)[C@@H](N)CCSC)[C@@H](C)O)C(=O)N[C@@H](CCCNC(=N)N)C(=O)N[C@@H](CO)C(N)=O [Example 43, H-MKTRQNKDSMSMRS-NH2] (H-MKTRQNKDSMSMRS-NH2) with pIC50 of 7 or above?
1 (yes)
